molecular target: purified human FAS (Homo sapiens, UniProt P49327); construct: Human FAS was purified from cultured ZR-75-1 human breast cancer cells obtained from the American Type Culture Collection; endogenous in cells; enzyme purified by PEG precipitation and Mono Q chromatography; test: FAS enzymatic activity (malonyl-CoA dependent NADPH oxidation); settings: purified FAS from ZR-75-1 cells, OD340
Sequence (P49327 whole entry): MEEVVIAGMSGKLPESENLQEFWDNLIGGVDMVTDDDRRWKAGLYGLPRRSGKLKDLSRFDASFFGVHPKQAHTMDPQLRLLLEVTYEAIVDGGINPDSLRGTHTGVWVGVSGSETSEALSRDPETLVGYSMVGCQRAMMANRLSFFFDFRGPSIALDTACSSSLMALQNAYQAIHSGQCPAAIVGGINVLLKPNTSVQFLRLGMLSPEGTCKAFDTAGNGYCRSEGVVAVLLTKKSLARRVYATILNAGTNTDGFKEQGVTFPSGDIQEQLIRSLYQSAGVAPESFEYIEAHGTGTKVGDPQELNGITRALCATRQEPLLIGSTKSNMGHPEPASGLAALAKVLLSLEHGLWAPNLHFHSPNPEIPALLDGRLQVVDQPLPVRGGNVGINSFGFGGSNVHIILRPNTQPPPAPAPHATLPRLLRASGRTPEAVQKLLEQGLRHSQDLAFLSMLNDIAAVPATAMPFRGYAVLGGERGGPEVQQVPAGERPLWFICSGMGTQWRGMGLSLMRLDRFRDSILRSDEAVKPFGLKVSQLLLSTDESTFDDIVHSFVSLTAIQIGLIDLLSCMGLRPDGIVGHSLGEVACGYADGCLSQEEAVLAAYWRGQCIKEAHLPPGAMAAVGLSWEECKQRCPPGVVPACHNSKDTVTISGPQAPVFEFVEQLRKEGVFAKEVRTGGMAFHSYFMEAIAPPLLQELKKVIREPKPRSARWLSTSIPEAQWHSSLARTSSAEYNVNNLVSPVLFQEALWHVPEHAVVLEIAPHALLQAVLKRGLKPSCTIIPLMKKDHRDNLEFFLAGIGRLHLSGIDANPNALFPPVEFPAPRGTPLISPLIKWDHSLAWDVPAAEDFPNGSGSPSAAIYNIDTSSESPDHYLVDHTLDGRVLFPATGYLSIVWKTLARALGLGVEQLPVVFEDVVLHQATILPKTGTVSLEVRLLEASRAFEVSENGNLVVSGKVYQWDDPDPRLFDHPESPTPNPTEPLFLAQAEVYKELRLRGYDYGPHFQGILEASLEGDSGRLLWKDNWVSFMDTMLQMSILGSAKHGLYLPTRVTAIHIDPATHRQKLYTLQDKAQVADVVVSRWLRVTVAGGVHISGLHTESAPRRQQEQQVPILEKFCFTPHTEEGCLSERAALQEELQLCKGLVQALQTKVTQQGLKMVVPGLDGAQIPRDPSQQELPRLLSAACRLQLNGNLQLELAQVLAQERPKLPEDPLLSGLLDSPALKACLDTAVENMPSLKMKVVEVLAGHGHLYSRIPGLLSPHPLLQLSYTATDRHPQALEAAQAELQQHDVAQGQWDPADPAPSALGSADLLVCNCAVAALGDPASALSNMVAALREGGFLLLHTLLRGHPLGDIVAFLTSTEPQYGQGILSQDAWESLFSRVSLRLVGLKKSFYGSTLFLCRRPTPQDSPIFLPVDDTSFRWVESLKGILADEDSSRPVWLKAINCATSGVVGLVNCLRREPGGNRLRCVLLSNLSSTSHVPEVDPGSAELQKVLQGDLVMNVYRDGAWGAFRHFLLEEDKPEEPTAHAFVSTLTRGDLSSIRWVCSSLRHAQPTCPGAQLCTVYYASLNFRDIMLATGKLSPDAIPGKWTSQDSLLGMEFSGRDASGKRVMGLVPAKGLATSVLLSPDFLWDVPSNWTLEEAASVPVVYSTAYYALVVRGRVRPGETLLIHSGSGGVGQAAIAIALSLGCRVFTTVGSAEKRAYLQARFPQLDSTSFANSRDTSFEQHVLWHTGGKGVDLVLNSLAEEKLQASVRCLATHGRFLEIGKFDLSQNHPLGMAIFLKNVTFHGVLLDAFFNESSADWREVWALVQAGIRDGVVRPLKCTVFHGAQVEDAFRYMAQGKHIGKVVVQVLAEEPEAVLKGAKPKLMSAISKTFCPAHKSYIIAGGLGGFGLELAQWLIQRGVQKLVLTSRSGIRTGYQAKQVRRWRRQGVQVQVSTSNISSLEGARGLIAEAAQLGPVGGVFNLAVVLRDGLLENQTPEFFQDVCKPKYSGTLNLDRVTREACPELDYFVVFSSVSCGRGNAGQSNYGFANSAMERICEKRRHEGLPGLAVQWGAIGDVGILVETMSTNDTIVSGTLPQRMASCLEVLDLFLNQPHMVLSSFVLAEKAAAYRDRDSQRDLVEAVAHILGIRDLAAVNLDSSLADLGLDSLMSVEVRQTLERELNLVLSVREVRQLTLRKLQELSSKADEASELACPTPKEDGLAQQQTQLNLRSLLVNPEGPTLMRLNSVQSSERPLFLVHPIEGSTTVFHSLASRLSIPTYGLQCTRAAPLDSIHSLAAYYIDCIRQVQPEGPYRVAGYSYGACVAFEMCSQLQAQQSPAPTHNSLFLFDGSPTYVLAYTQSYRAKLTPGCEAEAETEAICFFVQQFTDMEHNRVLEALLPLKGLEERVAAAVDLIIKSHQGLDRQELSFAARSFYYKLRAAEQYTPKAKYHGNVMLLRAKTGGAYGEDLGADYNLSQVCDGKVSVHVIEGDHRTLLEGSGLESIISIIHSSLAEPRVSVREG
Observable: IC50 (µM)
Express it in µM; write the number only.

Documented IC50 of COC(=O)c1sc(C(=O)NNc2ccc(Cl)cc2)cc1O : 230
